Data origin, for the record: ChEMBL document CHEMBL3797068

Below: a set of entries, each annotated with reported IC50.
Target: Phosphatidylinositol 4,5-bisphosphate 3-kinase catalytic subunit alpha isoform (Homo sapiens)
Sequence (P42336 whole entry, canonical isoform): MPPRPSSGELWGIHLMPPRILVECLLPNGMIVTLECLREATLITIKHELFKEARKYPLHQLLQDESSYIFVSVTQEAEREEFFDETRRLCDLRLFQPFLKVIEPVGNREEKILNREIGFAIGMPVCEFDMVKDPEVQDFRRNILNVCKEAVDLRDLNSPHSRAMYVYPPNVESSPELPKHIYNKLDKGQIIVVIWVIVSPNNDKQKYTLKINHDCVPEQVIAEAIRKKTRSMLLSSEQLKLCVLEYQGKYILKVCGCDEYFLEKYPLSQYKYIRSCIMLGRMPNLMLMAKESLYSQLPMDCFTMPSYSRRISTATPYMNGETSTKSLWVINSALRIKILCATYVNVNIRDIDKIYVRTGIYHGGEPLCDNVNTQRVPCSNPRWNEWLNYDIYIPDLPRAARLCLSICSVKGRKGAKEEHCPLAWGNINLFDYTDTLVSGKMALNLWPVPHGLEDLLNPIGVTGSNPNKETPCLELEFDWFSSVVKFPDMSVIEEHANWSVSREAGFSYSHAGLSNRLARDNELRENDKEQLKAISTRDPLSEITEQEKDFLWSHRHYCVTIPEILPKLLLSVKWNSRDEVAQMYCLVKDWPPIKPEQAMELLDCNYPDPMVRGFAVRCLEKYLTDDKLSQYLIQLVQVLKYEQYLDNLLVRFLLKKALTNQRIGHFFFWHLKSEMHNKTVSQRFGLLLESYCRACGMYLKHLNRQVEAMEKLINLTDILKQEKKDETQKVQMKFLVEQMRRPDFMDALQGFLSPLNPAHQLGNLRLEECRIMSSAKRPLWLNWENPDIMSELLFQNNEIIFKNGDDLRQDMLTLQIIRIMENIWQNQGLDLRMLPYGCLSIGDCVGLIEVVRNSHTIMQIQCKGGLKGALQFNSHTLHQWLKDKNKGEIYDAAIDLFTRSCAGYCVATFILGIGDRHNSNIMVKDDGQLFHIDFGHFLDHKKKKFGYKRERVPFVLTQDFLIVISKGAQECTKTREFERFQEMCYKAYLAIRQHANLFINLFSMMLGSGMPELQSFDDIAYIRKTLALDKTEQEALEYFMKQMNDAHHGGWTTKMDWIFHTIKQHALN
Assay: Inhibition of PI3Kalpha (unknown origin) using PIP2 as substrate by HTRF assay
Report as a plain number; the unit nM is understood.

The recorded IC50 for CCOC(Cn1nc(-c2ccc3oc(N)nc3c2)c2c(N)ncnc21)OCC is 981

---
The recorded IC50 for Nc1nc2cc(-c3nn(CC4CCCC4)c4ncnc(N)c34)ccc2o1 is 3.5

The recorded IC50 for Nc1nc2cc(-c3nn(CC4CCCO4)c4ncnc(N)c34)ccc2o1 (stereo not drawn) is 44

###

Reported values: IC50 for Tyrosine-protein kinase Blk (Homo sapiens), one per item.

The molecule Nc1nc2cc(-c3nn(CC4OCCO4)c4ncnc(N)c34)ccc2o1 , tested on Tyrosine-protein kinase Blk (Homo sapiens), showed IC50 of > 100 µM

As a next step, examine the molecule that follows.
The molecule COC(Cn1nc(-c2ccc3oc(N)nc3c2)c2c(N)ncnc21)OC , tested on Tyrosine-protein kinase Blk (Homo sapiens), showed IC50 of > 100 µM

###

Target: Serine/threonine-protein kinase mTOR (Homo sapiens, UniProt P42345)
Assay: Inhibition of human mTOR using (poly [Glu, Tyr] 4:1) as substrate assessed as incorporation of 33P in substrate by [gamma33P] ATP-based kinase assay
Measured Endpoint: pIC50
Scale explanation: pIC50 corresponds to minus log10 of a concentration expressed in moles per litre.

The recorded pIC50 for COC(Cn1nc(-c2ccc3oc(N)nc3c2)c2c(N)ncnc21)OC is 7.60

The recorded pIC50 for Nc1nc2cc(-c3nn(CC4OCCO4)c4ncnc(N)c34)ccc2o1 is 7.23

###

Target: Phosphatidylinositol 4,5-bisphosphate 3-kinase catalytic subunit gamma isoform (Homo sapiens)
Sequence (P48736 whole entry, canonical isoform): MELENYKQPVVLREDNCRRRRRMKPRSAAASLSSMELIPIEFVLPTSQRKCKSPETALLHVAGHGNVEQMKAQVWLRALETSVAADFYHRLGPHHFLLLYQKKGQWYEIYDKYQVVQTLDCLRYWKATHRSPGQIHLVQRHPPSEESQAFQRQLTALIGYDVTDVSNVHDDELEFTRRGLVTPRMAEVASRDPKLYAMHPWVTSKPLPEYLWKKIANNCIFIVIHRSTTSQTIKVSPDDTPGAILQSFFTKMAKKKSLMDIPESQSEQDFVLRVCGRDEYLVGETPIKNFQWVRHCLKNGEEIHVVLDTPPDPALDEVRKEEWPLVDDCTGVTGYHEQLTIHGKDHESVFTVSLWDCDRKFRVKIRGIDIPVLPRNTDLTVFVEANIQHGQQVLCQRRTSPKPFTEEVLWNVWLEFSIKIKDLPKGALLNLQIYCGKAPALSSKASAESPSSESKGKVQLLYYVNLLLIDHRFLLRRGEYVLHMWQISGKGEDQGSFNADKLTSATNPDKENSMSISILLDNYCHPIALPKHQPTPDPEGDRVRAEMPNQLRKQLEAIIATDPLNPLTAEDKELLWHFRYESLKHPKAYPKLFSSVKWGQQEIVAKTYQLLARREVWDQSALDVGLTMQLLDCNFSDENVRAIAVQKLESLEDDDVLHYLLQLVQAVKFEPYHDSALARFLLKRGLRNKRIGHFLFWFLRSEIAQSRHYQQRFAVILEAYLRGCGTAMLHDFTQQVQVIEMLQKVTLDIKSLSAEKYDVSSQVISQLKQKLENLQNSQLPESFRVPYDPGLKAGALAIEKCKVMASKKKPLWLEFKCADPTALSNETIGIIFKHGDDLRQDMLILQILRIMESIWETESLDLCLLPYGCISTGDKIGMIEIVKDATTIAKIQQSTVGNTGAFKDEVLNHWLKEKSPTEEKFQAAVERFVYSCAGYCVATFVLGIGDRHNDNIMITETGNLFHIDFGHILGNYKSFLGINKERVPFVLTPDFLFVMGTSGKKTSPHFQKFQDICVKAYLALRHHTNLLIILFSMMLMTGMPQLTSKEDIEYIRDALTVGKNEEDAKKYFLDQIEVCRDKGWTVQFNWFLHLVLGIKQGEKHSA
Assay: Inhibition of PI3Kgamma (unknown origin) using PIP2 as substrate by HTRF assay
Measured Endpoint: pIC50
Scale explanation: pIC50 corresponds to minus log10 of a concentration expressed in moles per litre.

Here's what some known entries look like.
The recorded pIC50 for Nc1nc2cc(-c3nn(CC4CCCO4)c4ncnc(N)c34)ccc2o1 (stereo not drawn) is 7.11

The recorded pIC50 for CCOC(Cn1nc(-c2ccc3oc(N)nc3c2)c2c(N)ncnc21)OCC is 5.87

---
The recorded pIC50 for Nc1nc2cc(-c3nn(CC4CCCC4)c4ncnc(N)c34)ccc2o1 is 8.30

###

Target: Mast/stem cell growth factor receptor Kit (Homo sapiens, UniProt P10721)
Sequence (P10721 whole entry): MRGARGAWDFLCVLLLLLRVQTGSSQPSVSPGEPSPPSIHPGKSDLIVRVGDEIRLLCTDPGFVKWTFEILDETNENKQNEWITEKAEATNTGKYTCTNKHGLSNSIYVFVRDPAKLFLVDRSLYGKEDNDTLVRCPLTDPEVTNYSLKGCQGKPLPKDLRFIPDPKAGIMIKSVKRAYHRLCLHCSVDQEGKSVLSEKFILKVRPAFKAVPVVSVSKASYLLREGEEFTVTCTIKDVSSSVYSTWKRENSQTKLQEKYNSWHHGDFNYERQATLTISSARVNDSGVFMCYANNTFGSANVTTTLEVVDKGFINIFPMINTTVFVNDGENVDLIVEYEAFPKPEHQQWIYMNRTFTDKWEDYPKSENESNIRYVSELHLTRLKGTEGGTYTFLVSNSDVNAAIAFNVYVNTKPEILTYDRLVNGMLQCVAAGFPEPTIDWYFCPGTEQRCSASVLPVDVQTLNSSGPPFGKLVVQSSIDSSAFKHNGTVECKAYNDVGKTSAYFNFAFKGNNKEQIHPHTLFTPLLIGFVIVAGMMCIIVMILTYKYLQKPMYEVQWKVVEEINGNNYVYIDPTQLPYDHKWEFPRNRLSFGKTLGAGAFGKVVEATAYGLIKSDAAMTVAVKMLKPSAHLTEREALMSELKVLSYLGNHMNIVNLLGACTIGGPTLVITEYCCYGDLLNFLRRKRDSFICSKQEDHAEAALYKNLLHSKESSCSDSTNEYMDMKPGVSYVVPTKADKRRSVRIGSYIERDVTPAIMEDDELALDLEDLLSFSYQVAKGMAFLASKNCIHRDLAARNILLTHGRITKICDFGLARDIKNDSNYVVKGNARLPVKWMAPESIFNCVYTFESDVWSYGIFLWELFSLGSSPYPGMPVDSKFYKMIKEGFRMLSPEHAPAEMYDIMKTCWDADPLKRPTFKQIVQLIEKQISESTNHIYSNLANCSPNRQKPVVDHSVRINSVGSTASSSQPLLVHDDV
Test: Inhibition of human KIT using (poly [Glu, Tyr] 4:1) as substrate assessed as incorporation of 33P in substrate by [gamma33P] ATP-based kinase assay
Measured Endpoint: IC50

The compound COC(Cn1nc(-c2ccc3oc(N)nc3c2)c2c(N)ncnc21)OC , tested on Mast/stem cell growth factor receptor Kit (Homo sapiens, UniProt P10721), showed IC50 of > 100 µM

---
The compound Nc1nc2cc(-c3nn(CC4OCCO4)c4ncnc(N)c34)ccc2o1 , tested on Mast/stem cell growth factor receptor Kit (Homo sapiens, UniProt P10721), showed IC50 of > 100 µM

The compound CCOC(Cn1nc(-c2ccc3oc(N)nc3c2)c2c(N)ncnc21)OCC , tested on Mast/stem cell growth factor receptor Kit (Homo sapiens, UniProt P10721), showed IC50 of > 100 µM
